System: IFNα-stimulated STAT-dependent luciferase reporter in Kit225 T cells
Assay: Kit225 T cell assay, IFNα stimulated STAT-dependent luciferase reporter
Format: cell-based, human
Settings: Kit225 T cells, 200 U/mL human recombinant IFNα, 5-6 hours, luciferase; read-out: IFNα (Kit225 T Cell Inhibition Data)
measurement_type: IC50 (nM)

{"columns": ["compound_string", "tested_target", "value_reported"],
 "data": [
  ["CNC(=O)c1cnc(Nc2ccc(F)cn2)cc1Nc1ccc(F)c(F)c1", "IFNα-stimulated STAT-dependent luciferase reporter in Kit225 T cells", 8130]
]}

[P] CNC(=O)c1cnc(Nc2ccc(F)cn2)cc1Nc1ccc(-c2ccccc2)cc1
[Q] CNC(=O)c1cnc(Nc2cc(C)n(C)n2)cc1Nc1ccccc1S(C)(=O)=O
[R] CNC(=O)c1cnc(Nc2ccc(F)cn2)cc1Nc1ccc(Cl)cc1OC
Rank items: key IC50, increasing. Your task in answering is to list the labels in the requested order. Q, R, P
(Q: 110 nM, R: 310 nM, P: 8660 nM)

###

Test system: IFNα-stimulated STAT-dependent luciferase reporter in Kit225 T cells
Assay: Kit225 T cell assay, IFNα stimulated STAT-dependent luciferase reporter
Format: cell-based, human
Conditions: Kit225 T cells, 200 U/mL human recombinant IFNα, 5-6 hours, luciferase; read-out: IFNα (Kit225 T Cell Inhibition Data)
Description: Kit225 T cells with a stably-integrated STAT-dependent luciferase reporter were plated in RPMI (Gibco) containing 10% heat-inactivated FBS (Gibco) and 100 U/mL PenStrep (Gibco). The cells were then stimulated with either 20 ng/mL human recombinant IL-23 or 200 U/mL human recombinant IFNα (PBL InterferonSource) for 5-6 hours. Luciferase expression was measured using the STEADY-GLO® Luciferase Assay System (Promega) according to the manufacturer's instructions.
pIC50: −log10 of the molar value.
measurement_type: pIC50

{"columns": ["compound_string", "pIC50"],
 "data": [
  ["CNC(=O)c1cnc(Nc2cccc(OC)n2)cc1Nc1ccc(F)cc1OC", 6.25],
  ["CNC(=O)c1cnc(Nc2ccc(C(N)=O)cn2)cc1Nc1ccc(Cl)cc1OC", 6.15],
  ["CNC(=O)c1cnc(Nc2cccc(C(F)(F)F)n2)cc1Nc1ccc(F)cc1OC", 6.14],
  ["CNC(=O)c1cnc(Nc2ccc(F)cn2)cc1Nc1cccc(C(=O)NC)c1OC", 7.00],
  ["CNC(=O)c1cnc(Nc2cc3ccccc3cn2)cc1Nc1cc(F)cc(F)c1OC", 6.41]
]}

[P] CNC(=O)c1cnc(Nc2ccccn2)cc1Nc1cc(F)cc(F)c1OC
[Q] CCOc1ccc(OCC)c(Nc2cc(Nc3ccc(N4CCOCC4)cn3)ncc2C(=O)NC)c1
[R] CNC(=O)c1cnc(Nc2ccc(F)cn2)cc1Nc1ccc(C(=O)NC2CC2)cc1S(C)(=O)=O
[S] CNC(=O)c1cnc(Nc2ccc3ccccc3n2)cc1Nc1ccccc1C(C)(C)O
Thanks in advance: please rank these 4 entries by pIC50, highest to lowest. Your task in answering is to list the labels in the requested order. P, Q, R, S

[P] CNC(=O)c1cnc(Nc2cc(C)c(F)cn2)cc1Nc1cccc(-c2cnn(C)c2)c1OC
[Q] CNC(=O)c1cnc(Nc2cc(C(=O)N3CCCC3)ccn2)cc1Nc1cc(F)cc(F)c1OC
[R] CCNC(=O)c1cnc(Nc2ccc(F)cn2)cc1Nc1ccccc1S(C)(=O)=O
[S] CNC(=O)c1cnc(Nc2cc(OC)ncn2)cc1Nc1ccccc1S(C)(=O)=O
[T] CNC(=O)c1ccc(Nc2cc(Nc3ccc(Cl)cc3OC)c(C(=O)NC)cn2)nc1
Thanks in advance: please rank these 5 entries by pIC50, highest to lowest. Your task in answering is to list the labels in the requested order. P, Q, S, R, T

###

Tested on: IFNα-stimulated STAT-dependent luciferase reporter in Kit225 T cells
Assay: Kit225 T cell assay, IFNα stimulated STAT-dependent luciferase reporter
Format: cell-based, human
Conditions: Kit225 T cells, 200 U/mL human recombinant IFNα, 5-6 hours, luciferase; read-out: IFNα (Kit225 T Cell Inhibition Data)
measurement_type: IC50 (nM)

Recorded results for 3 compounds are shown here.
{"columns": ["compound_string", "IC50 [nM]"],
 "data": [
  ["CNC(=O)c1cnc(Nc2ncccc2Cl)cc1Nc1ccccc1C(N)=O", 8260],
  ["CNC(=O)c1cnc(Nc2ccc(F)cn2)cc1Nc1ccc(OC)cc1S(C)(=O)=O", 110],
  ["CNC(=O)c1cnc(Nc2ccc(N3CCCCC3)cn2)cc1Nc1ccccc1S(C)(=O)=O", 50]
]}

[A] CNC(=O)c1cnc(Nc2ccc(F)cn2)cc1Nc1ccc(C(=O)N2CCOCC2)cc1
[B] CNC(=O)c1cnc(Nc2cc(C)nc(C)n2)cc1Nc1cccc(-c2nc(C)n(C)n2)c1OC
# query: argmin of IC50 over A and B Select an item and report its label. B
(B: 9.22 nM, A: 3660 nM)

###

System: IFNα-stimulated STAT-dependent luciferase reporter in Kit225 T cells
Assay: Kit225 T cell assay, IFNα stimulated STAT-dependent luciferase reporter
Format: cell-based, human
Conditions: Kit225 T cells, 200 U/mL human recombinant IFNα, 5-6 hours, luciferase; read-out: IFNα (Kit225 T Cell Inhibition Data)
measurement_type: IC50 (nM)

{"columns": ["molecule", "tested_target", "IC50, nM"],
 "data": [
  ["[2H]C([2H])([2H])NC(=O)c1cnc(Nc2cc(C)c(F)cn2)cc1Nc1cccc(-c2cnn(C)c2)c1OC [Example 399]", "IFNα-stimulated STAT-dependent luciferase reporter in Kit225 T cells", 50],
  ["CNC(=O)c1cnc(Nc2cc(C)ccn2)cc1Nc1ccccc1S(C)(=O)=O [Example 4]", "IFNα-stimulated STAT-dependent luciferase reporter in Kit225 T cells", 30],
  ["CNC(=O)c1cnc(Nc2ncccc2C)cc1Nc1ccccc1C(N)=O [Example 83]", "IFNα-stimulated STAT-dependent luciferase reporter in Kit225 T cells", 6940],
  ["CNC(=O)c1cnc(Nc2cc(F)ccn2)cc1Nc1ccc(Cl)cc1OC [Example 115]", "IFNα-stimulated STAT-dependent luciferase reporter in Kit225 T cells", 440],
  ["[2H]C([2H])([2H])NC(=O)c1cnc(Nc2ccccn2)cc1Nc1cccc(-c2cnn(C)c2)c1OC [Example 398]", "IFNα-stimulated STAT-dependent luciferase reporter in Kit225 T cells", 20]
]}

[I] CNC(=O)c1cnc(Nc2cccc(-c3ccccc3)n2)cc1Nc1ccc(F)cc1OC [Example 150]
[II] CNC(=O)c1cnc(Nc2cc(-n3ccccc3=O)ccn2)cc1Nc1cc(F)cc(F)c1OC [Example 167]
Which numeric IC50 is bigger, that of I or that of II ? Select an item and report its label. I
(I: 1520 nM, II: 310 nM)

###

Test system: IFNα-stimulated STAT-dependent luciferase reporter in Kit225 T cells
Test: Kit225 T cell assay, IFNα stimulated STAT-dependent luciferase reporter
Type: cell-based, human
Conditions: Kit225 T cells, 200 U/mL human recombinant IFNα, 5-6 hours, luciferase; read-out: IFNα (Kit225 T Cell Inhibition Data)
measurement_type: IC50 (nM)

{"columns": ["compound_string", "IC50 / nM"],
 "data": [
  ["CNC(=O)c1cnc(Nc2ccc(F)cn2)cc1Nc1ccc(C(=O)N2CCC(F)(F)C2)cc1OC", 260],
  ["CNC(=O)c1cnc(Nc2ccc(F)cn2)cc1Nc1cccc2[nH]ccc12", 2030],
  ["CNC(=O)c1cnc(Nc2cc(OC)ccn2)cc1Nc1cc(F)cc(F)c1OC", 440],
  ["CNC(=O)c1cnc(Nc2ccc(F)cn2)cc1Nc1ccc(C(N)=O)cc1", 2710]
]}

[1] CCN(CC)C(=O)c1ccc(Nc2cc(Nc3ccc(F)cn3)ncc2C(=O)NC)cc1
[2] CNC(=O)c1cnc(Nc2cc(C)ccn2)cc1Nc1ccccc1C(N)=O
Which numeric IC50 is bigger, that of 1 or that of 2 ? Select an item and report its label. 1

[a] CNC(=O)c1cnc(Nc2ncccc2F)cc1Nc1ccccc1C(N)=O
[b] CNC(=O)c1cnc(Nc2ccc(N3CCOCC3)cn2)cc1Nc1ccc(F)c(F)c1OC
Which numeric IC50 is bigger, that of a or that of b ? Select an item and report its label. a
(a: 1310 nM, b: 80 nM)

###

Target: recombinantly expressed His-tagged protein corresponding to amino acids 575-869 of human Tyk2 (Homo sapiens, UniProt P29597)
Construct: corresponding to amino acids 575-869 of human Tyk2
Sequence (P29597 575-869): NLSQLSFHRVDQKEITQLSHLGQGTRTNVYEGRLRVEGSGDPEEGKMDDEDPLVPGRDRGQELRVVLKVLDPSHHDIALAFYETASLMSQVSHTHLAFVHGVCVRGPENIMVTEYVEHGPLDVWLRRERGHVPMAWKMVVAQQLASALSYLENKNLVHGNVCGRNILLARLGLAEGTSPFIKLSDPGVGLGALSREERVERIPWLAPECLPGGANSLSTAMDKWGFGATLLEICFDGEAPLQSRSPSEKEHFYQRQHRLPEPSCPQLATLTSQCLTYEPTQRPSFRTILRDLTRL
Test: Probe displacement assay (scintillation proximity, [3H] probe)
Conditions: 2.5 nM Tyk2 (575-869), 40 nM radiolabeled probe, 30 minutes at room temperature
pEC50: −log10 of the molar value.
measurement_type: pEC50

[a] CCc1cccc(Nc2cc(Nc3ccc(Cl)cc3OC)c(C(=O)NC)cn2)n1
[b] [2H]C([2H])([2H])NC(=O)c1cnc(Nc2cc(C)c(C#N)c(C)n2)cc1Nc1ccccc1S(C)(=O)=O
# query: argmin of pEC50 over a and b Select an item and report its label. a
